// note: IC50 values for UniProt:P28845 were reported in different studies

Sample records with IC50:
CC1(CC(F)(F)F)SC(N[C@@H]2C[C@H]3CC[C@@H]2C3)=NC1=O (stereo partly drawn)	< 20 nM
CCN1C(=O)C2(CCN(C(=O)/C=C/c3ccccc3C(F)(F)F)CC2)c2cc(C(=O)OC)ccc21	< 100 nM
CCc1nc2c(s1)CCN(C(=O)c1cc3ncc(Br)cn3n1)CC2	> 10000 nM
CCOC(=O)CC1CC2(CCN(C(=O)NCc3ccccc3C)CC2)c2c(Br)cccc21 (stereo not drawn)	< 100 nM
O=C(O)CC1CC2(CCN(C(=O)/C=C/c3ccccc3C(F)(F)F)CC2)c2c(Cl)cccc21 (racemic)	< 100 nM

Hey, UniProt:P28845 data for O=C(CCCOc1ccc(Cl)cc1Cl)N[C@@]12C[C@@H]3C[C@@H](C[C@@](O)(C3)C1)C2 : IC50 came out at 27 nM

Simply: COc1ccc2c(c1)CCNC21CCN(C(=O)CCc2ccccc2C(F)(F)F)CC1 , UniProt:P28845, IC50 = < 100 nM

Entry CC1(C)OC(N[C@@H](CCO)c2ccccc2F)=NS(=O)(=O)C1(C)c1cccc(-c2ccccc2)c1 (single isomer, unassigned) , UniProt:P28845 data, IC50 value: 44 nM

Bench note, UniProt:P28845: CN1C(=O)C2(CCN(C(=O)/C=C/c3ccccc3C(F)(F)F)CC2)c2cc(C(=O)O)ccc21 , IC50 reads 100 to 1000 nM

Reading of IC50 for CC1([C@H]2CCOC2)SC(NCC2CCCCC2)=NC1=O (stereo partly drawn) with UniProt:P28845: < 20 nM
